Molecular target: V-type proton ATPase subunit B, brain isoform (Homo sapiens)
Sequence (P21281 whole entry, the tested form may be a part, canonical isoform): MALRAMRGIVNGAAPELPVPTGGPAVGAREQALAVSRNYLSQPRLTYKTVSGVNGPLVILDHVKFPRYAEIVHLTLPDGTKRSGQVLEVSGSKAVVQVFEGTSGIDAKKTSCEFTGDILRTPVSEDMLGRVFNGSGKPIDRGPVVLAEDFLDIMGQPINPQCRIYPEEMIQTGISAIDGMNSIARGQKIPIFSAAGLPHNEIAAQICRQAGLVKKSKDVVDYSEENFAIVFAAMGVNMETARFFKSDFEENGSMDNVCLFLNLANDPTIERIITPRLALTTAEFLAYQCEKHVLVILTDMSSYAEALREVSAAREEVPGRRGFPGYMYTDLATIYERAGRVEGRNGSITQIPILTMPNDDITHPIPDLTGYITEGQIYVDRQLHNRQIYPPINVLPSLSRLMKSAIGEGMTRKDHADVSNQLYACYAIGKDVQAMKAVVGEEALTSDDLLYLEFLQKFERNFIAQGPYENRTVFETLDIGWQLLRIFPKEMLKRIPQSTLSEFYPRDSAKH
Experiment: Inhibition of maltose binding protein-fused human V-ATPase subunit B2 binding to F-actin
pIC50: −log10 of the molar value.
MEASURED METRIC: pIC50

> print(dat)
                                   compound  endpoint.value
1  CCn1cc(C(=O)O)c(=O)c2cc(F)c(N3CCNCC3)nc21 [ENOXACIN]            5.00
